The origin of these recorded values is patent US10350228B2.

In this section we review reported inhibition at 1000 µM values for a set of compounds.
System: antibody core fucosylation
Assay: Inhibition of antibody core fucosylation by fucose analogs
Format: cell-based
Conditions: Table 1, 1 mM analog
From the text: Methods of determining whether a fucose analog is capable of having an effect on antibody core fucosylation is provided in WO 2012/019165.

# annotated cases, reported inhibition at 1000 µM shown
• CC(=O)O[C@H]([C@H](OC(C)=O)[C@H](CBr)OC(C)=O)[C@@H](C=O)OC(C)=O [6-bromo-fucose tetraacetate, 6-bromofucose tetraacetate] = 80%
• C#CC[C@@H]1OC(OC(C)=O)[C@@H](OC(C)=O)[C@H](OC(C)=O)[C@@H]1OC(C)=O (stereo partly drawn) [propargyl fucose tetraacetate] = 10 to 20%
• CC(=O)O[C@H]([C@H](OC(C)=O)[C@H](CI)OC(C)=O)[C@@H](C=O)OC(C)=O [6-iodo-fucose tetraacetate, 6-iodofucose tetraacetate] = 30%

Need inhibition at 1000 µM, item CC(=O)OC1O[C@@H]([C@]2(C)CO2)[C@@H](OC(C)=O)[C@@H](OC(C)=O)[C@@H]1OC(C)=O (stereo partly drawn) [5-methyloxiran-arabinose tetraacetate]
35 to 40%

Endpoint output: inhibition at 1000 µM of CC(=O)O[C@H]([C@H](OC(C)=O)[C@H](CCl)OC(C)=O)[C@@H](C=O)OC(C)=O [6-chloro-fucose tetraacetate, 6-chlorofucose tetraacetate] . Value?
20 to 30%

Reported inhibition at 1000 µM for CC(=O)O[C@H]([C@H](OC(C)=O)[C@H](CC#N)OC(C)=O)[C@@H](C=O)OC(C)=O [6-cyano fucose tetraacetate, 6-cyanofucose tetraacetate] : what is it?
> 80%

Could you tell me which inhibition at 1000 µM is on file for CC#CC(OC(C)=O)[C@@H](OC(C)=O)[C@@H](OC(C)=O)[C@@H](C=O)OC(C)=O (stereo partly drawn) [5-propynyl fucose tetraacetate, 5-propynylarabinose tetraacetate] ?
> 80%

For the compound shown here, C#CC(OC(C)=O)[C@@H](OC(C)=O)[C@@H](OC(C)=O)[C@@H](C=O)OC(C)=O (stereo partly drawn) [Alkynyl fucose peracetate, 5-ethynylarabinose tetraacetate] , give the reported inhibition at 1000 µM.
> 80%

I'd like to know its inhibition at 1000 µM. The compound in question is C#CC(OC(=O)CCCCC)[C@@H](OC(=O)CCCCC)[C@@H](OC(=O)CCCCC)[C@@H](C=O)OC(=O)CCCCC (stereo partly drawn) [Alkynyl fucose tetra-n-hexanoate, 5-ethynylarabinose tetrahexanoate]
> 80%
